Values compiled from PubChem BioAssay (NCATS).

Test system: NIH3T3
test: qHTS assay to identify novel small-molecules to repurpose for Merkel cell carcinoma treatment (AID 1296009); further: nearly all actives have a fitted effect of over 60% in size
test conditions: MCC and control cell lines, CellTiter-Glo viability, 72 h; at 44.8 µM (top of the series) unless noted
Results filed as inconclusive are left out. Activity calls are given as the source filed them. The call rests on the fitted dose curve; in most records, active means well fitted inhibition curve with a large enough effect; inconclusive means small, poorly fitted or top-dose-only effect; inactive means flat fitted curve, though single readings scatter.
test readout: outcome

Known results for compounds:
compound	outcome
O=C(O)CC/C=C\C[C@H]1CO[C@@H](c2ccccc2Cl)O[C@H]1c1ccccc1O	inactive
COC(=O)C1=CO[C@@H](O[C@@H]2O[C@H](CO[C@@H]3O[C@H](CO)[C@@H](O)[C@H](O)[C@H]3O)[C@@H](O)[C@H](O)[C@H]2O)[C@@H]2C(CO)=CC[C@H]12	inactive [at 17.4 µM]
CCC(C)/C=C(C)/C=C/C1=CC2=CC(=O)C(C)(O)C(OC(C)=O)C2CO1 (centres undefined)	inactive
Oc1ccc(CC2NCCc3cc(O)c(O)cc32)cc1 (centres undefined)	inactive
COC(=O)C1=COC(O[C@@H]2O[C@H](CO)[C@@H](O)[C@H](O)[C@H]2O)/C(=C\COC(=O)/C=C/c2ccccc2)C1CC(=O)OCCc1ccc(O)cc1 (some centres undefined)	inactive [at 17.4 µM]
C=C1C(OC(C)=O)[C@@]23CCC4[C@](C)(C(=O)O)CCC[C@@]4(C)[C@]2(O)CC[C@H]1C3 (some centres undefined)	inactive
Cc1c(-c2ccc3c(c2)OCO3)oc2ccc(C(O)C(C)O)cc12 (centres undefined)	inactive
O=C(O)Cc1cn([C@@H]2O[C@H](CO)[C@@H](O)[C@H](O)[C@H]2O[C@@H]2O[C@H](CO)[C@@H](O)[C@H](O)[C@H]2O)c2ccccc12	inactive [at 17.4 µM]
Cc1ccc(C)c(NC(=O)CNS(=O)(=O)c2ccc3[nH]c(=O)oc3c2)c1	inactive
CC(C)=CCC/C(C)=C/CO[C@@H]1O[C@H](CO[C@@H]2O[C@@H](CO)[C@H](O)[C@H]2O)[C@@H](O)[C@H](O)[C@H]1O	inactive [at 17.4 µM]

# input Form field - read-out: outcome; system: NIH3T3; submitted item: FC(F)(F)c1nnc2c(Sc3ccccc3)nc3ccc(Cl)cc3n12
# output inactive

# input Form field - read-out: outcome; system: NIH3T3; submitted item: Cn1cc(Nc2cnccc2C(=O)O)c2cccnc21
# output inactive

# input Form field - read-out: outcome; system: NIH3T3; submitted item: CC(C)c1ccc2c(c1)CCC1[C@](C)(C(=O)O)CCC[C@]21C (some centres undefined)
# output inactive

# input Form field - read-out: outcome; system: NIH3T3; submitted item: CCNC(=O)OC1CCN(c2nncc3cc(OC)c(OC)cc23)CC1
# output inactive

# input Form field - read-out: outcome; system: NIH3T3; submitted item: C=C1CC[C@@]2(OC1)O[C@H]1CC3C4CC=C5C[C@@H](O[C@@H]6O[C@@H](C)[C@H](O)[C@@H](O)[C@H]6O)C[C@@H](O[C@@H]6O[C@H](C)[C@H](O)[C@H](O)[C@H]6O[C@@H]6O[C@@H](C)[C@H](O)[C@@H](O)[C@H]6O)[C@]5(C)C4CC[C@]3(C)[C@H]1[C@@H]2C (some centres undefined)
# output inactive [at 9.27 µM]

# input Form field - read-out: outcome; system: NIH3T3; submitted item: O=C(NC1Cc2ccccc2N(C[C@@H](O)CO)C1=O)c1cc2cc(Cl)sc2[nH]1 (some centres undefined)
# output inactive
